Kindly state CDO test sleeping-time for each of the entries shown.
system: male Swiss mice; assay: Chlordiazepoxide-induced sleep in mice; format: in vivo, mouse; conditions: 0.55 mmol/kg orally, 1 h before CDO (100 mg/kg i.p.); controls 27.1 ± 3.5 min; * p < 0.01
Reply with just the number (in min).

Indicate the recorded CDO test sleeping-time value for this compound: CC(C)Cn1cnc2[nH]c(=O)n(C)c(=O)c21 [1-methyl-7-isobutyl-xanthine]
26.1

Indicate the recorded CDO test sleeping-time value for this compound: `Cn1c(=O)[nH]c2ncn(CC(C)(C)O)c2c1=O`
64.2

Find the measured CDO test sleeping-time of Cn1c(=O)c2[nH]cnc2n(C)c1=O [Theophylline, 1,3-dimethyl-xanthine, reference compound] and report it.
7.8

Using known records, supply CDO test sleeping-time for Cn1c(=O)[nH]c2ncn(C)c2c1=O [Paraxanthine, 1,7-dimethyl-xanthine]
2.3

---

system: isolated guinea pig bronchi; test: "In vitro" antibronchospastic activity in isolated guinea pig bronchi; type: cell-based; conditions: Cavia porcellus; isolated guinea pig bronchi, capsaicin 0.3 μM with thiorphan 10 μM; 95% C.L. in brackets; read-out: IC50, capsaicin-induced tone
Reported Metric: pIC50
The scale used: pIC50 is minus the common logarithm of the concentration in molar units.

State, in one line, measured pIC50 of Cn1c(=O)c2[nH]cnc2n(C)c1=O [Theophylline, 1,3-dimethyl-xanthine, reference compound]
4.40

# return recorded pIC50 for entry `CC(C)Cn1cnc2[nH]c(=O)n(C)c(=O)c21`
4.68

---

system: isolated guinea pig bronchi; test: "In vitro" antibronchospastic activity in isolated guinea pig bronchi; type: cell-based; conditions: Cavia porcellus, read-out: IC50, capsaicin-induced tone
Reported Metric: pIC50
Please note pIC50 is a logarithmic value: minus log10 of concentration in mol/L. Answer with that number alone.

Consider the compound `Cn1c(=O)[nH]c2ncn(C)c2c1=O` . State its measured pIC50.
4.09

---

assay: Acute oral toxicity in mice; conditions: mouse, in vivo, starved male Swiss mice, observed 10 days, Litchfield and Wilcoxon
Reported Metric: LD50 at 240 h (mg/kg)
Please give a number only; it is taken to be in mg/kg.

Return the recorded LD50 at 240 h value; entry: `CC(C)Cn1cnc2[nH]c(=O)n(C)c(=O)c21`
303
